These measurements were taken from paper PMC12040169.

experiment: in vitro; conditions: human, hela cells, % viability
viability at 28.5 h, 10 µM for assorted compounds
A number alone suffices; assume %.

Inquiry: Provide one value: measured viability at 28.5 h, 10 µM of Cn1c(CN2CCN(S(=O)(=O)c3ccccc3)CC2)nc2cc([N+](=O)[O-])ccc21 [CBK268321]
Reply text: 102

* * *

assay: in vitro; conditions: human, hela cells, % viability
This listing pairs molecules with measured viability at 28.5 h, 10 µM.
Numeric only. Scale: %

Sample answers from the record:
>>> reportedresult("Cc1c(Cc2ccccc2)c(N2CCN(Cc3ccccc3)CC2)n2c(nc3ccccc32)c1C#N")
94.9
>>> reportedresult("O=C(O)COc1ccc(Br)cc1/C=N/Nc1cccc2cccnc12")
112
>>> reportedresult("O=C(Cn1cccn1)NC(Cc1cccs1)c1nccs1 (centres unmarked)")
94.4
>>> reportedresult("Cc1cc(C)n(C(=O)CCNS(=O)(=O)c2ccc(Cl)cc2)n1")
111
>>> reportedresult("CCCC(=O)Nc1cccc(NC(=O)c2nc[nH]n2)c1")
104

Inquiry: Entry Oc1cccc(Sc2cc(N3CCCC3)ncn2)c1 needs its viability at 28.5 h, 10 µM filled in; supply it.
Reply text: 97.4

Inquiry: Look up and report measured viability at 28.5 h, 10 µM for this entry: Cc1ccc(NC(=O)n2ccc3c(N4CCNCC4)cccc32)cc1[N+](=O)[O-] [CBK003747C]
Reply text: 81.4

Inquiry: Quickly give me recorded viability at 28.5 h, 10 µM for O=C(O)c1ccc(CN2CC[C@H](c3nc4ccccc4o3)C2)cc1
Reply text: 108

* * *

test: in vitro; conditions: human, hela cells, % viability
compounds and their reported viability at 28.5 h, 10 µM
Express your answer in %, writing the number without its unit.

Worked set:
>>> reportedresult("COC(=O)C(N)c1c[nH]c2ccccc12 (stereo not drawn)")
104
>>> reportedresult("CN(C)CC(=O)NC(Cc1ccsc1)c1nccs1 (stereo not drawn)")
91.4
>>> reportedresult("Cc1ccc(CN(CCN(C)C)Cc2c(C)nn(C(C)C)c2C)o1")
100
>>> reportedresult("COc1ccc(NC(=O)c2cnn3c2NC(C(=O)O)=CC3c2ccccc2)cc1 (stereo not drawn)")
101
>>> reportedresult("COc1ccc(-n2nc(N)c3c(=O)oc(N(C)C)nc32)cc1")
89.9
>>> reportedresult("Cc1nnc(S)n1CC(=O)n1c2c(c3ccccc31)CCCC2")
106

Inquiry: Item CC1CCc2n[nH]c(C(=O)NCCCc3ccco3)c2C1 (stereo not drawn) : provide viability at 28.5 h, 10 µM
Reply text: 88.6

* * *

test: in vitro; conditions: human, hela cells, % viability
resultType: viability at 28.5 h, 10 µM (%)
Numbers only here, please. The scale is %.

>>> reportedresult("CN(C)CCN1CCN(c2nc(-c3ccc(S(C)(=O)=O)cc3)cnc2N)CC1")
100
>>> reportedresult("CCOC(=O)CCCNC(=O)N1CCN(Cc2ccccc2)CC1")
89.2
>>> reportedresult("CN1CCCC1C(CCNC1CCCCC1)c1ccccc1 (centres unmarked) [CBK023921C]")
99
>>> reportedresult("C(=C\\c1nccnc1OCCc1cccs1)/c1ccccc1")
101

Turning now to a further record.
Inquiry: Retrieve viability at 28.5 h, 10 µM measured for O=C(CC1c2ccccc2Oc2ccccc21)N1CCc2nc3ccccc3c(=O)n2CC1 and print it.
Reply text: 92.4

* * *

experiment: in vitro; details: human, hela cells, % viability
Items are presented alongside their recorded viability at 28.5 h, 10 µM.
Return type: number; implicit unit %.

Some solved entries appear below for comparison.
>>> reportedresult("CC(=O)NC(Cc1c[nH]c2ccccc12)/C(C)=N/O (stereo not shown) [CBK022711]")
120
>>> reportedresult("Cc1nccn1CCC(=O)NCCc1ccc(N(C)C)cc1 [CBK281954]")
82.6
>>> reportedresult("N#Cc1cc2c(=O)n(-c3ccccn3)ccc2[nH]c1=O [CBK288119]")
94.5
>>> reportedresult("CC(=O)OC(COc1ccc2ccccc2c1Br)Cn1cnc2ccccc21 (stereo not shown) [CBK266083]")
84.6

Inquiry: Give the reported value of viability at 28.5 h, 10 µM for this record: COc1ccc2c(c1)C(C)CC(C)(C)N2C(=O)CSc1nnc(-c2ccco2)n1C (stereo not shown) [CBK059169]
Reply text: 102

Inquiry: Assign viability at 28.5 h, 10 µM to the following record: COc1ccc(-c2cc(C(=O)NCc3ccc(N)cc3)cnc2-c2cccc(C)c2)cc1 [CBK036728]
Reply text: 106

Inquiry: Provide only the value of recorded viability at 28.5 h, 10 µM for COc1cc(C(=O)N2CCC3(CC2)CC(=O)c2ccc(C)cc2O3)cc(-c2ccc(OC)c(OC)c2)c1 [CBK168282]
Reply text: 89.5

Inquiry: Please supply the value of reported viability at 28.5 h, 10 µM for the item CCCn1c(O)cc(=O)nc1SCC(=O)N1CCCc2ccccc21 [CBK304977]
Reply text: 79.1

Inquiry: Determine from records and report viability at 28.5 h, 10 µM for CC(NC(=O)N1CCCN(Cc2cccs2)CC1)c1nncn1C (stereo not shown) [CBK305322]
Reply text: 80.3

* * *

experiment: in vitro; conditions: human, hela cells, % viability
resultType: viability at 28.5 h, 10 µM (%)
State the answer as a number, implicitly in %.

Worked examples, 4 molecules total:
>>> reportedresult("c1cnn(CCNc2nc3nonc3nc2N2CCCCC2)c1 [CBK306740]")
83.8
>>> reportedresult("CC(C)(C)OC(=O)N1CCC[C@H]([C@H](O)c2cccs2)C1 [CBK282301]")
102
>>> reportedresult("Cc1cccc(NC(=O)c2ccccc2NS(=O)(=O)c2ccc(F)c(F)c2)c1 [CBK113810]")
115
>>> reportedresult("O=c1c2c([nH]c3nc(COc4ccccc4)nn13)CCC2 [CBK288188]")
98

Continue with the molecule presented below.
Inquiry: Give a short answer stating reported viability at 28.5 h, 10 µM for Cc1csc(CNCc2c(C)nn(C)c2N(C)C)n1 [CBK304804] .
Reply text: 103

* * *

experiment: in vitro; conditions: human, hela cells, % viability
Listed here are molecules together with their documented viability at 28.5 h, 10 µM.
# unit: % | format: bare number

Example results:
>>> reportedresult("Cc1cc(N2CCN(C(=O)c3ccsc3)CC2)nc(C(C)C)n1 [CBK304053]")
102
>>> reportedresult("O=C1CCC(=O)N1CCOc1nccnc1N1CCN(CCc2ccc3ccccc3c2)CC1 [CBK084307]")
96.4
>>> reportedresult("O=C(O)C1C2C=CC(C2)C1C(=O)N1CCN(Cc2ccccc2Cl)CC1 (stereo not drawn) [CBK270334]")
93
>>> reportedresult("CC(=O)N(C)c1nc(-c2ccccc2C)ccc1C(=O)NC1CCCCC1 [CBK106333]")
96.9
>>> reportedresult("CN(C)CCN(C)c1cncc(-c2ccc(F)cc2F)n1 [CBK065652]")
90.9

Inquiry: Provide measured viability at 28.5 h, 10 µM value, entry: CCc1ccc(CNC(=O)Cn2nnc(-c3ccc(CN4CCC(C)CC4)cn3)n2)cc1 [CBK153928C]
Reply text: 93.6

* * *

test: in vitro; conditions: human, hela cells, % viability
The reader will find reported viability at 28.5 h, 10 µM values listed item by item below.
Give the value, in units of %, as a plain number.

Record excerpt, results attached:
>>> reportedresult("COc1ccc(S(=O)(=O)N2CCC(C(=O)NCc3cccnc3)CC2)cc1Cl")
95.2
>>> reportedresult("Cn1cc(-c2nc(C(=O)NCC3CCN(c4ccccc4)C3)cs2)cn1 (centres unmarked)")
84.8
>>> reportedresult("O=C(c1cc(F)c(F)cc1F)N1CCC2(CCCN(CCCn3c(=O)[nH]c4ccccc43)C2)C1 (centres unmarked)")
84.9
>>> reportedresult("O=C(O)CC1Cn2ncc(-c3ccccc3)c2NC1=O (centres unmarked)")
89.5
>>> reportedresult("Brc1ccc(-n2c(SC/C=C/c3ccccc3)nnc2-c2ccncc2)cc1")
105

Inquiry: Return reported viability at 28.5 h, 10 µM. Input compound: CCN1CCCC1CNC(=O)c1ccc(C)nc1NCCCn1ccnc1 (centres unmarked)
Reply text: 90.7

Inquiry: Dear colleague, please send me the reported viability at 28.5 h, 10 µM for CC(C)Nc1ncnc2scc(-c3cccs3)c12 when you can.
Reply text: 85.9

Inquiry: Quote viability at 28.5 h, 10 µM reported for CN1CCN(CCCNC(=O)N2CCCC(CO)C2)CC1 (centres unmarked) please.
Reply text: 99.7

Inquiry: Name the recorded viability at 28.5 h, 10 µM of the item Cc1nn(C(C)CC(=O)NC2CCCOC2)c(C)c1C (centres unmarked) in your answer.
Reply text: 112

Inquiry: Identify viability at 28.5 h, 10 µM associated with the compound CCN1CCN(Cc2cnc(-c3ccccn3)nc2)CC1=O
Reply text: 99.9

Inquiry: Give the value of viability at 28.5 h, 10 µM reported for the following: CC(C)(C)NC(=O)COc1ccc(CNc2ccc(C(=O)O)c(Cl)c2)cc1
Reply text: 111

Inquiry: Output viability at 28.5 h, 10 µM of CC1CN(C)C(c2ccccc2)C(C)C12NC(=O)N=C2O (centres unmarked)
Reply text: 88.1

Inquiry: Quickly give me recorded viability at 28.5 h, 10 µM for Cc1ccc(C(C)C)c(OCC(O)CNC(C)C)c1 (centres unmarked) [CBK026604C]
Reply text: 111
